Test system: Streptococcus pyogenes SSI-9
assay remarks: Antibacterial activity assay of bead-derived peptides (three concentrations)
Type: cell-based
Set-up: key: +++: inhibition by the 640-fold diluted peptide solution; ++: inhibition by the 160-fold diluted solution; +: inhibition by the 40-fold diluted solution; -: no inhibition
recorded conditions: S. pyogenes, bead-derived peptide solution, three concentrations
Where a SMILES comes first, the peptide text is derived from it. [ ]: non-standard residue; d: D form. The star is where a group is joined. NHCH2CH2OH = OCCN*; For = O=C*
measured endpoint: antibacterial activity

Example cases with answers are listed next.
CC(C)C[C@@H](NC(=O)[C@H](Cc1c[nH]c2ccccc12)NC(=O)[C@H](NC(=O)[C@@H](NC(=O)[C@H](NC(=O)[C@H](C)NC(=O)[C@H](NC(=O)[C@H](C)NC(=O)CNC(=O)[C@@H](NC=O)C(C)C)[C@H](C)O)C(C)C)C(C)C)C(C)C)C(=O)N[C@@H](Cc1c[nH]c2ccccc12)C(=O)N[C@H](CC(C)C)C(=O)N[C@@H](Cc1c[nH]c2ccccc12)C(=O)N[C@@H](C(=O)N[C@@H](Cc1c[nH]c2ccccc12)C(=O)NCCO)C(C)C [compound 4452] (For-VGA[dT]A[dV]V[dV]W[dL]W[dL]W[dV]W-NHCH2CH2OH) | -
CC(C)C[C@@H](NC(=O)[C@H](C)NC(=O)CNC(=O)[C@@H](NC=O)C(C)C)C(=O)N[C@@H](C)C(=O)N[C@H](CC(C)C)C(=O)N[C@H](C(=O)N[C@@H](C(=O)N[C@@H](Cc1c[nH]c2ccccc12)C(=O)N[C@H](CC(C)C)C(=O)N[C@@H](Cc1c[nH]c2ccccc12)C(=O)N[C@@H](C(=O)N[C@@H](Cc1c[nH]c2ccccc12)C(=O)N[C@H](CC(C)C)C(=O)N[C@@H](Cc1c[nH]c2ccccc12)C(=O)NCCO)[C@H](C)O)[C@H](C)O)C(C)C [compound 3780] (For-VGA[dL]A[dL]V[dT]W[dL]W[dT]W[dL]W-NHCH2CH2OH) | -
CNC(=O)C[C@@H](NC(=O)[C@H](Cc1c[nH]c2ccccc12)NC(=O)[C@@H](CC(C)C)NC(=O)[C@H](Cc1c[nH]c2ccccc12)NC(=O)[C@H](NC(=O)[C@H](Cc1c[nH]c2ccccc12)NC(=O)[C@@H](CC(C)C)NC(=O)[C@@H](NC(=O)[C@@H](CC(C)C)NC(=O)[C@H](C)NC(=O)[C@@H](CC(C)C)NC(=O)[C@H](C)NC(=O)CNC(=O)[C@@H](NC=O)C(C)C)C(C)C)C(C)C)C(=O)N[C@@H](Cc1c[nH]c2ccccc12)C(=O)NCCO [compound 3854] (For-VGA[dL]A[dL]V[dL]W[dV]W[dL]W[dD](NHMe)W-NHCH2CH2OH) | -
CNC(=O)C[C@@H](NC(=O)[C@H](Cc1c[nH]c2ccccc12)NC(=O)[C@H](NC(=O)[C@@H](NC(=O)[C@@H](CC(C)C)NC(=O)[C@H](C)NC(=O)[C@@H](CC(C)C)NC(=O)[C@H](C)NC(=O)CNC(=O)[C@@H](NC=O)C(C)C)C(C)C)C(C)C)C(=O)N[C@@H](Cc1c[nH]c2ccccc12)C(=O)N[C@H](CC(C)C)C(=O)N[C@@H](Cc1c[nH]c2ccccc12)C(=O)N[C@@H](C(=O)N[C@@H](Cc1c[nH]c2ccccc12)C(=O)NCCO)C(C)C [compound 5091] (For-VGA[dL]A[dL]V[dV]W[dD](NHMe)W[dL]W[dV]W-NHCH2CH2OH) | +
CC(C)C[C@@H](NC(=O)[C@H](Cc1c[nH]c2ccccc12)NC(=O)[C@H](NC(=O)[C@@H](NC(=O)[C@H](NC(=O)[C@H](C)NC(=O)[C@H](NC(=O)[C@H](C)NC(=O)CNC(=O)[C@@H](NC=O)C(C)C)C(C)C)C(C)C)C(C)C)C(C)C)C(=O)N[C@@H](Cc1c[nH]c2ccccc12)C(=O)N[C@H](CC(C)C)C(=O)N[C@@H](Cc1c[nH]c2ccccc12)C(=O)N[C@@H](C(=O)N[C@@H](Cc1c[nH]c2ccccc12)C(=O)NCCO)[C@H](C)O [compound 5172] (For-VGA[dV]A[dV]V[dV]W[dL]W[dL]W[dT]W-NHCH2CH2OH) | ++
CC(C)C[C@@H](NC(=O)[C@H](C)NC(=O)CNC(=O)[C@@H](NC=O)C(C)C)C(=O)N[C@@H](C)C(=O)N[C@@H](C(=O)N[C@H](C(=O)N[C@H](CC(C)C)C(=O)N[C@@H](Cc1c[nH]c2ccccc12)C(=O)N[C@H](CC(C)C)C(=O)N[C@@H](Cc1c[nH]c2ccccc12)C(=O)N[C@@H](C(=O)N[C@@H](Cc1c[nH]c2ccccc12)C(=O)N[C@H](CC(C)C)C(=O)N[C@@H](Cc1c[nH]c2ccccc12)C(=O)NCCO)C(C)C)C(C)C)[C@H](C)O [compound 9676] (For-VGA[dL]A[dT]V[dL]W[dL]W[dV]W[dL]W-NHCH2CH2OH) | -
CC(C)C[C@@H](NC(=O)[C@H](C)NC(=O)CNC(=O)[C@@H](NC=O)C(C)C)C(=O)N[C@@H](C)C(=O)N[C@@H](C(=O)N[C@H](C(=O)N[C@@H](C(=O)N[C@@H](Cc1c[nH]c2ccccc12)C(=O)N[C@@H](C(=O)N[C@@H](Cc1c[nH]c2ccccc12)C(=O)N[C@@H](C(=O)N[C@@H](Cc1c[nH]c2ccccc12)C(=O)N[C@H](CC(C)C)C(=O)N[C@@H](Cc1c[nH]c2ccccc12)C(=O)NCCO)C(C)C)C(C)C)[C@H](C)O)C(C)C)C(C)C [compound 4493] (For-VGA[dL]A[dV]V[dT]W[dV]W[dV]W[dL]W-NHCH2CH2OH) | -

Request: Record request: antibacterial activity value, item CC(C)C[C@@H](NC(=O)[C@H](C)NC(=O)[C@H](NC(=O)[C@H](C)NC(=O)CNC(=O)[C@@H](NC=O)C(C)C)C(C)C)C(=O)N[C@H](C(=O)N[C@H](CC(C)C)C(=O)N[C@@H](Cc1c[nH]c2ccccc12)C(=O)N[C@H](CC(C)C)C(=O)N[C@@H](Cc1c[nH]c2ccccc12)C(=O)N[C@@H](C(=O)N[C@@H](Cc1c[nH]c2ccccc12)C(=O)N[C@@H](C(=O)N[C@@H](Cc1c[nH]c2ccccc12)C(=O)NCCO)C(C)C)C(C)C)C(C)C [compound 9247] (For-VGA[dV]A[dL]V[dL]W[dL]W[dV]W[dV]W-NHCH2CH2OH)
Response: +
